Tested on: MS2 coat protein
Assay: apparent KD of MS2 coat protein; designed switch direction (-1 OFF switch, 1 ON switch): -1; higher = weaker reporter binding
Conditions: input ligand: none
Category | rule: reported apparent KD of MS2 coat protein within range, see zone 1 (below 20 nM), zone 2 (20 nM to below 30 nM), zone 3 (30 nM or more)

{"columns": ["sequence.string", "assigned.class"],
 "data": [
  ["ACGCCCUGAGGAUAUCUUAUCCCGUACAUGAGGAUCACCCAUGUUUUCCUCCGGGCUUCGAGAGAAGGCAGGCCCA [Armus14] (Eterna round: R97, puzzle: Exclusion 5)", "zone 3"],
  ["GAUUUGUAAGGAUAUCGUGCAAGUUUCAAAAGAGGCUUGUGCGAGAAGGUACAUGAGGAUCACCCAUGUAGGUU [Omei Ex4 B13] (Eterna round: R97, puzzle: Exclusion 4)", "zone 2"],
  ["AAGAAGGCCGUAGGAUAUACAGCAAGAACGCGAGUAGAAGGACGAUACAUGAGGAUCACCCAUGUACGUGGGUAGUGCUCGUGC [Soatceri] (Eterna round: R96, puzzle: Exclusion NG 1)", "zone 2"],
  ["GGAUCGAAUGUGAGGAUAUGCUGGUCCUUGGAUCAGCAGAAGGCACAUGAGGAUCACCCAUGUGAUAUCGAUCC [Eli bmx4 4.71] (Eterna round: R97, puzzle: Brourd's mod of Exclusion 4)", "zone 3"],
  ["ACGAUGACAGAAAGAUGUCAAAAGACAUGAGGAUCACCCAUGUAGGAUAUGGCUACGAAAAGUAGUCAGAAGGACAUGUCAUCA [Omei Exc(NG) 3 Av1] (Eterna round: R96, puzzle: Exclusion NG 3)", "zone 1"],
  ["AAUUAAUAUCAGGAUAUGACGUGCCUCGGCACGUCAGAAGGGAUGACAUGAGGAUCACCCAUGUGAUCAAUUAA [E6/1-A2] (Eterna round: R97, puzzle: Exclusion 6)", "zone 2"],
  ["CUGCUCCGUGUAGGAUAUGCAUAUUCCCAUUAUGCAGAAGGACAUGAGGAUCACCCAUGUAUGUUAUUAUCAUGUGUUGCAUGC [Design 10] (Eterna round: R96, puzzle: Exclusion NG 1)", "zone 3"],
  ["GUAGAGUCAGGAUAUACGAGAUCGAAAGAUCGGCGGUCCAUACAUGAGGAUCACCCAUGUAGAAGGGACUCUAC [Omei mod 5 to Eli's favorate candidate (ch.parushev)] (Eterna round: R97, puzzle: Exclusion 2)", "zone 1"],
  ["AAUAACAAGCUGAUCCUGCACAUGAGGAUCACCCAUGUGCUCGUCUUGUAAAGUACUAUCACGAAAGUGAUAGUACA (Eterna round: R97, puzzle: Sensor, turn-off variant 1)", "zone 2"],
  ["AGUACUCUCACGAAAGUGAGAGUACAAAAAGCAAGUGAAACAUGAGGAUCACCCAUGUCCUCAUUUGCUCGUCUUAU [Mat - Sensor v2 -ver2- JL mod - D88] (Eterna round: R96, puzzle: Sensor v2, turn-off variant 2)", "zone 1"]
]}

Band of GAUCGACAUGAGGAUCACCCAUGUCAGGAUAUCGUCACUGGAGCUUCGGCUCCAGUGACGAGAAGGGAUAUAAU [E1/16-A1] (Eterna round: R97, puzzle: Exclusion 1) ?
zone 3

###

Test system: MS2 coat protein
Experiment: apparent KD of MS2 coat protein; designed switch direction (-1 OFF switch, 1 ON switch): -1; higher = weaker reporter binding
Settings: input ligand: FMN 200 uM
apparent KD of MS2 coat protein for assorted sequences
# unit: nM | format: bare number

{"columns": ["sequence.string", "recorded.metric", "observed.result"],
 "data": [
  ["CUAGUAUAUCAGGAUAUGAUAGUGUAUAGUAUAUCAGAAGGGAUGACAUGAGGAUCACCCAUGUUAAGGGAUGA [JR_Ex6_Sub050] (Eterna round: R97, puzzle: Exclusion 6)", "apparent KD of MS2 coat protein", 52.4],
  ["ACACAGCGAGGAUAUACAUGAGGAUCACCCAUGUGGUGGCAGUUACGGUAGGACUAGUGUAGAAGGUGCAGUGG [EX3 #29] (Eterna round: R97, puzzle: Exclusion 3)", "apparent KD of MS2 coat protein", 485]
]}

// next item, apparent KD of MS2 coat protein requested
The sequence GGUCGUCAAGUCAGGAUAUCGUUUGGUCGGUGUGACGAGAAGGGACAUGAGGAUCACCCAUGUCGUCUCAUCAG [Ex4 #29] (Eterna round: R97, puzzle: Brourd's mod of Exclusion 4) showed apparent KD of MS2 coat protein equal to 31

###

apparent KD of MS2 coat protein for assorted sequences
Tested on: MS2 coat protein
Assay: apparent KD of MS2 coat protein; designed switch direction (-1 OFF switch, 1 ON switch): -1; higher = weaker reporter binding
Conditions: input ligand: none
# unit: nM | format: bare number

Example sequences with recorded apparent KD of MS2 coat protein:
{"columns": ["sequence.string", "measurement.target", "value.unit", "observed.result"],
 "data": [
  ["UCUCGUAGGCAAGGAUAUCCUACAUUGUUCUGGCCCGGGCAUGCUACAUGAGGAUCACCCAUGUGGGAGAAGGUGCGCCACUGC [Design 27] (Eterna round: R96, puzzle: Exclusion NG 2)", "MS2 coat protein", "nM", 36.2],
  ["AGGCUGUCAGGAUAUCUGCGCCGCUGUACGCGGCGUUAUAAAGAGAAGGGACAUGAGGAUCACCCAUGUCCUCA [EX4 B.14] (Eterna round: R97, puzzle: Exclusion 4)", "MS2 coat protein", "nM", 19.5],
  ["UUCUACAAGCUGAGAUCCUACAUGAGGAUCACCCAUGUGGUCCGGAACAUUCUGUCACCGGAUCUUGCUCGUCUUGU [salish99_S_TOV1_R5_104] (Eterna round: R97, puzzle: Sensor, turn-off variant 1)", "MS2 coat protein", "nM", 48.4],
  ["AAUUUACAUGAGGAUCACCCAUGUGAGGAUAUAUGCAAAGAAGUGUUAGUAAGAAAGCAUAGAAGGCGCGUGAU [JR_Exc1_Sub041] (Eterna round: R97, puzzle: Exclusion 1)", "MS2 coat protein", "nM", 47.8],
  ["CCACGUCUGCAGGAUAUCAGAUUGUAAGAUCGAUGAGAAGGGCAGACAUGAGGAUCACCCAUGUCCGCCACCAA [EX6 C.10] (Eterna round: R97, puzzle: Exclusion 6)", "MS2 coat protein", "nM", 20.6]
]}

Item: GUCCGGCAUGUAGGAUAUGGAUCCGAUUAGGAUUUAGAAGGACAUGAGGAUCACCCAUGUGCAUUUAAUUAGUCAUUACCGGAU [EXclNG1-LROPPY05] (Eterna round: R96, puzzle: Exclusion NG 1) | System: MS2 coat protein | apparent KD of MS2 coat protein: 17.9

Item: CCCAGUUACGUAGGAUAUUGUACAUGAGGAUCACCCAUGUAAUAAAUGAGGAUUUCGGGUGUCUACAAGAAGGACGGGAUAGGC [Ostracism 17 - Jieux - Exclusion NG 2] (Eterna round: R96, puzzle: Exclusion NG 2) | System: MS2 coat protein | apparent KD of MS2 coat protein: 93

Item: ACAUUUUAUCCAUGAUAUCACAUGAGGAUCACCCAUGUUAAGGCGAUUUUGAUUUGUAAGCUUUGUGCUCGACUUAU [JR_STOV1_Sub054] (Eterna round: R97, puzzle: Sensor, turn-off variant 1) | System: MS2 coat protein | apparent KD of MS2 coat protein: 42.1

Item: CUUUUGUGAGGAUAUUAGUAGUAAAUAAAUAAAAUUACUACUUAGAAGGCACAUGAGGAUCACCCAUGUUCCUC [salish99_ex4_r3_043] (Eterna round: R96, puzzle: Exclusion 4) | System: MS2 coat protein | apparent KD of MS2 coat protein: 29.6

Item: GCACUGCGAGGAUAUACAUGAGGAUCACCCAUGUGUCGGCAGCCAUGUCAGUACAAAUGUAGAAGGCGCGUAAA [EX3 #54] (Eterna round: R97, puzzle: Exclusion 3) | System: MS2 coat protein | apparent KD of MS2 coat protein: 28.8

###

System: MS2 coat protein
Experiment: apparent KD of MS2 coat protein; higher = weaker reporter binding
Conditions: Eterna round: R107; input ligand: theophylline 20 uM
apparent KD of MS2 coat protein for assorted sequences

{"columns": ["sequence.string", "measurement.target", "apparent KD of MS2 coat protein"],
 "data": [
  ["AAGCUGACAAGAAGGUGUUCCUAAGCUGAUACCAGCCUGGAAACAGGCCCUUGGCAGCAGCACAUGAGGAUCACCCAUGUAAUAA [(T)'-(M)'-(T1)-(T2)-(M1)-(M2)_Design2(Mismatches)]", "MS2 coat protein", "0.172 µM"],
  ["GCUGCCAUACGAAGGAGCGCUGGUGUAAUGAGGCGAACAUGAGGAUCACCCAUGUGGCAUAAGCAGGUAGGUCGCGUAUGGCAGC [EAB #16]", "MS2 coat protein", "0.0202 µM"],
  ["CUUACGGGAAACCGACCCAAACAACGGGAAGGAGCGCCAAACAAGGCAGGUAGGUCGCCCACAUGAGGAUCACCCAUGUGUUGGG [Exclusion Arginine A GF 26]", "MS2 coat protein", "0.0477 µM"]
]}

The sequence GGAGUCGUCACGGCCGCCACUGCGGUGGUGUGACAUGAGGAUCACCCAUGUUGUCAUGCGGCCCUUAGGACCGGGUGUCGGUUCC [#1 Exclusion - Tryptophan B Attempt #23 (HarryS)] showed apparent KD of MS2 coat protein equal to 0.0851 µM

The sequence GGAUGGAACUCGGCCGCCACUGGUGAUCCUAAUGUACAUGAGGAUCACCCAUGUACAUGAGAAGAUAGGACCGGGAGAUAACAUG [V5] showed apparent KD of MS2 coat protein equal to 0.0312 µM

The sequence UUAGUAACGACGGCCGCCACUGAUUUUGGACAUGAGGAUCACCCAUGUAAAGAUCCUAGAAUGGUCAGGACCGGGUCUGAUAAUG [Exclusion Tryptophane B GF4] showed apparent KD of MS2 coat protein equal to 0.04 µM

The sequence GCACGACAUGAGGAUCACCCAUGUGCAGAUACCAGUAAUGUAUGUUACCCUUGGCAGCUGAGUAGGUCUGGAGGGCUAUAGGUUU [Same State Theophylline A GF13] showed apparent KD of MS2 coat protein equal to 0.0172 µM

The sequence AACAUACAAUUUUAGGUGGAUAUAAGGCGGCGAGGACCGGUACGGCCGCCACUCGCGUACAUGAGGAUCACCCAUGUCUGAAGCU [Same State - Tryptophan A (Freestyle 6)] showed apparent KD of MS2 coat protein equal to 0.0217 µM

The sequence UCUGGGUGCGCAAGGACCUGGAGUUGCGAUACCAGCACGGUAACGUGCCCUUGGCAGCGCACAUGAGGAUCACCCAUGUGGUGUU [#1 Exclusion - Theophylline A Attempt #18 (HarryS)] showed apparent KD of MS2 coat protein equal to 0.247 µM

The sequence CGGUUUGUGAUGGAUACCAGCAGAGAGAAUGUUUAUCCUGACAUGAGGAUCACCCAUGUGUGCCCUUGGCAGCUGUUGUGGGCUG [8.Y] showed apparent KD of MS2 coat protein equal to 0.102 µM

The sequence UGUAAAAUAACAGAUACCAGCGUGUUAUAAAACAUGAGGAUCACCCAUGUAGUGAUCAAGCGCCCUUGGCAGCUGGUAUUUUAUG [7.D] showed apparent KD of MS2 coat protein equal to 0.171 µM

The sequence UCGGUUUUCUACAUGAGGAUCACCCAUGUCCGAGGACCGGUACGGCCGCCACUCGCAAUCAAACAGACGUGGGCCAAAUUUGCGU [Isinso] showed apparent KD of MS2 coat protein equal to 0.0148 µM

The sequence UUUUUUUUGGGAAGGAGCGGGAACAUGUGGAUCUCCCAUGUACAUGAGGAUCACCCAUGUACCCAGGUAGGUCGCCCAUUUUUUU [Exclusion - Arginine B] showed apparent KD of MS2 coat protein equal to 0.0947 µM

The sequence AACAGGGCUCGCACGAAGCCCUAAGGUGAUACCAGCACAUGUAAGUGCCCUUGGCAGCACGGUACAUGAGGAUCACCCAUGUAGA [Isleenen] showed apparent KD of MS2 coat protein equal to 0.182 µM

The sequence GAACAUGAGGAUCACCCAUGUAAAACAGAUACCAGUGAUAUAAUACACCCUUGGCAGCUGAAGCUGAAUAAUAAUUCCCUCAAGC [Same State Theophylline A GF1] showed apparent KD of MS2 coat protein equal to 0.02 µM

The sequence CCGCCCUACCGCGAUACCAGUACGGCAGUUAACAUGAGGAUCACCCAUGUGCAAACAUAAUACCCUUGGCAGCGCCUGAAUCCAU [theeternabot_sameState_MS2_Theo_B_12] showed apparent KD of MS2 coat protein equal to 0.0292 µM

The sequence GGCACCAGGCGAAGGAGCGUGAAGACAUGAGGAUCACCCAUGUAGAGGCCCGGACAGGGUUCGCAGGUAGGUCGCGCCUGGUGCC [#1 Same State - Arginine B Attempt #9 (HarryS)] showed apparent KD of MS2 coat protein equal to 0.0406 µM

The sequence CUGCUACAUGAGGAUCACCCAUGUGGAGAUACCAGCCUGAACGAUGGCCCUUGGCAGCUCUUAGCUGGUGAUCAUAUAUUUCAGA [Zazaat] showed apparent KD of MS2 coat protein equal to 0.0682 µM

The sequence UGUAUGUGAUCUGAUACCAGAGUUGAUAAUCUGAGGAUCACCCUGGUAAGGCGAAAGCCGCUCCCUUGGCAGCAGAUCGCAUACU showed apparent KD of MS2 coat protein equal to 0.969 µM

The sequence CGUAUUGGAAACAGUACGAGUGAUCCGGUCCGAGGACCGGUACGGCCGCCACUCGAAAAUAAAUAACAUGAGGAUCACCCAUGUA [Ex Tryptophan A 8] showed apparent KD of MS2 coat protein equal to 0.0216 µM

The sequence AUUAUCAUGGUCAUAUAUAUAUCGUCAGAUACCAGACUAGAUAUAGUCCCUUGGCAGCUGUUACAUGAGGAUCACCCAUGUUAUA [JR_ExcTheophyA_Sub015] showed apparent KD of MS2 coat protein equal to 0.0801 µM

The sequence AACAUGAGGAUCACCCAUGUGUCCCUUGAUACCAGUCCCAUGUGAGACCCUUGGCAGCAAACAUGAGGAUCACCCAUGUCCCAUG [Same State Theophylline A 3] showed apparent KD of MS2 coat protein equal to 0.119 µM

The sequence AAAGGACAUGAGGAUCACCCAUGUCUCGAUACCAGCCGAUCAUCAGGCCCUUGGCAGCGAGACAAGGGUCAUGGAUCGCGGUUCU [Beerusmage] showed apparent KD of MS2 coat protein equal to 0.0174 µM
